Every entry's value here was drawn from PubChem BioAssay (EPA / NIEHS).

Read-out: Hypoxia-inducible factor 1-alpha (Homo sapiens) (UniProt Q16665)
Sequence (Q16665 whole entry, looked up): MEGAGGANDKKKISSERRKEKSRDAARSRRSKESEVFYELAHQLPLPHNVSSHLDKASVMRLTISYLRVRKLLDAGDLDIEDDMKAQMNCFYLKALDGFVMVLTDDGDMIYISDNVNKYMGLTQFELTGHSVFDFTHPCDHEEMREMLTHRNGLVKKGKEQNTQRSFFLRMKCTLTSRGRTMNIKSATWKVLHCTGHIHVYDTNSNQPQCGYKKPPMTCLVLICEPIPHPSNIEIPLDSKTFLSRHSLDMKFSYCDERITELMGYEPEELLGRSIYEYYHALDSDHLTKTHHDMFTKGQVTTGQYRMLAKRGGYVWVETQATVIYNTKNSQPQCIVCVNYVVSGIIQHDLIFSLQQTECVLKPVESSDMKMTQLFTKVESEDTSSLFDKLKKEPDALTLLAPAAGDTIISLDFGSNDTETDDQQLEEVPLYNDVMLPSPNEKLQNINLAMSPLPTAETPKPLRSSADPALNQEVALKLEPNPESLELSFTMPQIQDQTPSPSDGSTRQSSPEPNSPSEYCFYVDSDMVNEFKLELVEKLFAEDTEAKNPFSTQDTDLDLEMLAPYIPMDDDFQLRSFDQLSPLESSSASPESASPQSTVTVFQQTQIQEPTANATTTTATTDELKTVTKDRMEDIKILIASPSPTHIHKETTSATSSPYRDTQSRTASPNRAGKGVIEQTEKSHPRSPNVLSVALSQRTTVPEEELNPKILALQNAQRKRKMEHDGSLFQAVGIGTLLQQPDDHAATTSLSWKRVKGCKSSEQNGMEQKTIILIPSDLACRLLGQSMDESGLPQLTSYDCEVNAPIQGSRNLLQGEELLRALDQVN
Experiment: LTEA_HepaRG_HIF1A: Life Technologies and Expression Analysis (LTEA) Assay for Hypoxia-inducible factor 1 (HIF1A) Trancription factor using HepaRG (AID 2283503);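 note: HIF1A transcript by TaqMan qRT-PCR normalized to ACTB GAPDH and POLR2A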
Conditions: mRNA level, 48 h; actives raise or lower the signal
Active and inactive are the calls of the source. Rule for the calls: active = hit-call score of the fitted dose curve at least 0.9, where 1 is the maximum; inactive = score below 0.9.
MEASURE NAME: outcome

Look over these answered cases.
Please fill in: outcome reported for O=S1OCC2C(CO1)C1(Cl)C(Cl)=C(Cl)C2(Cl)C1(Cl)Cl (stereo not drawn) = inactive

Entry "O=C(O)COc1ccc(Cl)cc1Cl" — recorded outcome = inactive

response.value for "O=C1c2ccccc2C(=O)N1SC(Cl)(Cl)Cl" (field: outcome) = inactive

The compound "COP(=S)(OC)Oc1ccc(SC)c(C)c1" showed outcome equal to inactive

The recorded outcome for entry "OCCOc1ccccc1" equals inactive

---
outcome in this record for "O=C(Nc1ccccc1)Nc1cnns1" : inactive

outcome recorded for this compound, CC1(c2ccc(Oc3ccccc3)cc2)OC(=O)N(Nc2ccccc2)C1=O (stereo not drawn) , is inactive

The compound identified as "CNC(=O)Oc1cccc(N=CN(C)C)c1" registered its outcome at inactive

Lab book: outcome of CCC(C)(NC(=O)c1cc(Cl)c(C)c(Cl)c1)C(=O)CCl (stereo not drawn) noted as inactive

GET /value?item= "CCC(C)(C)C(=O)OC1=C(c2ccc(Cl)cc2Cl)C(=O)OC12CCCCC2" &field=outcome returns inactive

Given item CC(C)(C)C(O)C(Oc1ccc(Cl)cc1)n1cncn1 (stereo not drawn) , the value recorded as its outcome is inactive

outcome reading for "COc1nn(CSP(=S)(OC)OC)c(=O)s1" : inactive

Value of measured outcome for the entry "CCCN(CCOc1c(Cl)cc(Cl)cc1Cl)C(=O)n1ccnc1" : inactive
